Listed here: items and their measured pEC50.
biological target: human β3-adrenoceptor (Homo sapiens); construct: membranes); experiment: β3-adrenoceptor-mediated adenylyl cyclase activity (agonist); details: agonist concentration producing 50% activation of adenylyl cyclase; CHO cell plasma membranes, cAMP over 20 minutes; read-out: Beta-3 EC50
Sequence (P13945 whole entry): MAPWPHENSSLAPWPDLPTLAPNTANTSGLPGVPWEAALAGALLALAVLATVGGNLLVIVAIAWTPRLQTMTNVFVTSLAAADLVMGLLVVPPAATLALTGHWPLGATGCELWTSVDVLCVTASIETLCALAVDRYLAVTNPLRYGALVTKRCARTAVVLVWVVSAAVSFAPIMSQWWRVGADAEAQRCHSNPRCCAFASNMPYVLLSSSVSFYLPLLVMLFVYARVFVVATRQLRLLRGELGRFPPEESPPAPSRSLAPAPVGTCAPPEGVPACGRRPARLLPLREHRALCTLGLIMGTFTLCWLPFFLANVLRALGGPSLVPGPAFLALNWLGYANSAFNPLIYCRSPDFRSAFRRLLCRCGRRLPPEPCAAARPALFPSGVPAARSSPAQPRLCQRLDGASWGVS
pEC50: −log10 of the molar value. Where a name gives a salt, the structure may show the parent alone.
quantity: pEC50

In [3]: df
Out[3]:
                                   compound  quantity  recorded_result
0  C[C@H](Cc1ccc(OCP(=O)(O)OCCCOCc2ccccc2)cc1)NC[C@H](O)COc1ccc(O)c(CO)c1 [Example 17, lithium salt]     pEC50             5.96
1  O=P(O)(COc1ccc(CCNC[C@H](O)COc2ccc(O)cc2)cc1)C1CCCCC1 [Example 29, lithium salt]     pEC50             5.77
2  C[C@H](Cc1ccc(OCP(=O)(O)c2ccccc2)cc1)NC[C@H](O)COc1ccc(O)c(CO)c1 (racemic) [Example 21, lithium salt]     pEC50             5.90

---

Listed here: items and their measured pKi.
target: human β2-adrenoceptor (Homo sapiens); construct: membranes); test: Antagonist binding at β2-adrenoceptors, displacement of [125I]-iodocyanopindolol; conditions: CHO cell plasma membranes; from binding IC50 by Cheng-Prusoff equation; read-out: Beta-2 Ki
Sequence (P07550 whole entry): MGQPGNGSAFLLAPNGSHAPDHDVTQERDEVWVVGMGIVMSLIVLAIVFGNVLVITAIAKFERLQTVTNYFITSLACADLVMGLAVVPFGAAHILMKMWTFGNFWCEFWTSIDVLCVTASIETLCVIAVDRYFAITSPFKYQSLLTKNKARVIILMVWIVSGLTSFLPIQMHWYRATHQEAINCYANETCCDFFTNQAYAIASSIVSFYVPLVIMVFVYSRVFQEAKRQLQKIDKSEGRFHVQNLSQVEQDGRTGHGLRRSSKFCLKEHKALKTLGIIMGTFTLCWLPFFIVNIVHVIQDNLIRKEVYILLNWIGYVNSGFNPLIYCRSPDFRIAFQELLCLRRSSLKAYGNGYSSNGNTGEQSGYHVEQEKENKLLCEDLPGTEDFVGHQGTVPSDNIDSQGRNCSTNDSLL
pKi: −log10 of the molar value. Structures can show the parent of a compound that is named as a salt.
quantity: pKi

>>> print(df.to_string())
                                   compound  recorded_result
0  C[C@H](Cc1ccc(OCP(=O)(O)c2ccccc2)cc1)NC[C@H](O)COc1ccc(O)c(CO)c1 (racemic) [Example 21, lithium salt]             4.82
1  O=P(O)(COc1ccc(CCNC[C@H](O)COc2ccc(O)cc2)cc1)C1CCCCC1 [Example 29, lithium salt]             3.57
2  C[C@H](Cc1ccc(OCP(=O)(O)OCCCOCc2ccccc2)cc1)NC[C@H](O)COc1ccc(O)c(CO)c1 [Example 17, lithium salt]             5.00

---

Listed here: items and their measured Ki.
molecular target: human β1-adrenoceptor (Homo sapiens, UniProt P08588); construct: membranes); experiment: Antagonist binding at β1-adrenoceptors, displacement of [125I]-iodocyanopindolol; conditions: CHO cell plasma membranes; from binding IC50 by Cheng-Prusoff equation; read-out: Beta-1 Ki
Sequence (P08588 whole entry): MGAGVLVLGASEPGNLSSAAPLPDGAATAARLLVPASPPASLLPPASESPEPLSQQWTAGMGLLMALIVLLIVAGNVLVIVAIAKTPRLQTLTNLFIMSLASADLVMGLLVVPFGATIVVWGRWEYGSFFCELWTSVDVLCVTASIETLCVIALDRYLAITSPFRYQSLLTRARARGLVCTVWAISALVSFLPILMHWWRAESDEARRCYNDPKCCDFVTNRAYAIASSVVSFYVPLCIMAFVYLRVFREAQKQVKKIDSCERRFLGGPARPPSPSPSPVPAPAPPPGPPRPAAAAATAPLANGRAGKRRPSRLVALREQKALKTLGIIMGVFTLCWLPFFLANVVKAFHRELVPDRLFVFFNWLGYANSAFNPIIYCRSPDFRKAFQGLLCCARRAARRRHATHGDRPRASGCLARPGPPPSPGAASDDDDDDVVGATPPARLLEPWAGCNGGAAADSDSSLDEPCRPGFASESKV
Counter-ions that a name gives are not always drawn.
quantity: Ki (µM)

>>> df
                                   molecule  quantity  unit_text  recorded_result
0  O=P(O)(COc1ccc(CCNC[C@H](O)COc2ccc(O)cc2)cc1)C1CCCCC1 [Example 29, lithium salt]        Ki         µM              288
1  C[C@H](Cc1ccc(OCP(=O)(O)OCCCOCc2ccccc2)cc1)NC[C@H](O)COc1ccc(O)c(CO)c1 [Example 17, lithium salt]        Ki         µM               21
2  C[C@H](Cc1ccc(OCP(=O)(O)c2ccccc2)cc1)NC[C@H](O)COc1ccc(O)c(CO)c1 (racemic) [Example 21, lithium salt]        Ki         µM              155
